Please find below Ki data on Adenosine receptor A1 (Rattus norvegicus, UniProt P25099) compiled from the literature.
- tgt: Adenosine receptor A1 (Rattus norvegicus, UniProt P25099)
- Sequence (P25099 whole entry): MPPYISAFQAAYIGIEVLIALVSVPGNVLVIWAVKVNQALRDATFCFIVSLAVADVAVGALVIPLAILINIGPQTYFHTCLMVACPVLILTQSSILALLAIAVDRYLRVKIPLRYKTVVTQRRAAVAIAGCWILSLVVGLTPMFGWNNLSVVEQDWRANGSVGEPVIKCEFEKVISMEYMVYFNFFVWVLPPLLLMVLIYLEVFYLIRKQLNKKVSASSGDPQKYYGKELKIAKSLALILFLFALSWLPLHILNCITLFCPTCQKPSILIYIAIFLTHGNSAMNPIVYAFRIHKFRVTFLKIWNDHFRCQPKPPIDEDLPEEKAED
measure.name: Ki (nM)

In the examples that follow, each entry is paired with its recorded Ki.
Nc1nc(N/N=C/C=C/c2ccccc2)nc2c1ncn2[C@@H]1O[C@H](CO)[C@@H](O)[C@H]1O	1050
C#CCn1cnc2c1c(=O)n(C)c(=O)n2C	12000
CCNC(=O)[C@H]1OC(n2cnc3c(N)nc(C#CCN4CCOCC4)nc32)[C@H](O)[C@@H]1O (some centres undefined)	90.5
O=C(NC1CC1)[C@H]1OC(n2cnc3c(NCc4ccccc4)ncnc32)[C@H](O)[C@@H]1O (some centres undefined)	112

(a) Nc1nc(NN2CCCCC2)c2ncn([C@@H]3O[C@H](CO)[C@@H](O)[C@H]3O)c2n1
(b) CCCCn1c(=O)c2nc[nH]c2n(Cc2ccccc2)c1=O
(c) Cc1ccc(NC(=O)Cc2ccc(Nc3ncnc4c3ncn4C3O[C@H](CO)[C@@H](O)[C@H]3O)cc2)cc1 (some centres undefined)
(d) CCCCn1c(=O)c2c(nc3n2CCCN3CCc2ccc(OCC(=O)NCCN3CCOCC3)cc2)n(CCCC)c1=O
(e) Cn1c(=O)c2c(cc(-c3cccc4ccccc34)n2C)n(C)c1=O
Please put the entries in order of rising Ki. Answer format: the labels, ordered as requested.
c, a, d, b, e
(c: 1.7 nM, a: 30 nM, d: 181 nM, b: 668 nM, e: 9200 nM)

----------
Please find below pKi data on UniProtKB P25099 compiled from the literature.
pKi: −log10 of the molar value.
measure.name: pKi

CCC1CN2C(=O)N(C)c3[nH]c(-c4ccccc4)nc3C2=N1 (stereo not given)	6.58
CCCOc1cccc2c1CCCC2Nc1ncnc2c1ncn2[C@@H]1O[C@H](CO)[C@@H](O)[C@H]1O (stereo not given in full)	7.09
CCCCn1c(=O)c2c(nc3n2CCCN3CCc2ccc(OCC(=O)NCCc3ccccn3)cc2)n(CCCC)c1=O	6.42
CCCN1C(=O)N2C(=NC[C@@H]2C)c2[nH]c(C34CCC(O)(CC3)CC4)nc21	7.16
Cc1[nH]c2nc(-c3ccccc3)nc(N)c2c1C	5.83
CCC(CC)CCOc1nc(N)c2ncn(C3O[C@H](CO)[C@@H](O)[C@H]3O)c2n1 (stereo not given in full)	5.83
Cn1c(=O)c2c(nc3n2CCCN3Cc2ccc(Cl)cc2F)n(C)c1=O	5.31
O=C(Nc1nc(-c2ccccc2)cs1)c1ccc([N+](=O)[O-])cc1	7.66

(A) CCCn1c(=O)c2c3nc[nH]c3ccc2n(CCC)c1=O
(B) Cn1c(=O)c2c(ncn2C2O[C@H](CO)[C@@H](O)[C@H]2O)n(C)c1=O (stereo not given in full)
Kindly compare A with B and tell me which has the lower pKi figure. Mark your selection by writing its label.
B

(a) CCNC(=O)[C@H]1OC(n2cnc3c(NCc4cccc(Br)c4)ncnc32)[C@H](O)[C@@H]1O (stereo not given in full)
(b) O=C(Nc1nc(-c2ccccc2)cs1)c1ccc(Br)cc1
Between the two listed entries a and b , which has its pKi at the higher number? Mark your selection by writing its label.
a
(a: 7.96, b: 7.48)

(A) Nc1nc(Cl)nc2c1ncn2[C@@H]1O[C@H](CO)[C@@H](O)[C@H]1F
(B) C[C@@H](c1ccccc1)n1c2c(c3c(N)nc(-c4ccccn4)nc31)CCCC2
Between the two listed entries A and B , which has its pKi at the higher number? Mark your selection by writing its label.
A
